Tested on: interferon (α)
Test: Cytokine Induction in Human Cells: interferon (α) by ELISA
Type: cell-based
Details: human PBMC, 18 to 24 hours incubation, compounds generally tested at 30-0.014 μM; read-out: Lowest Effective Concentration Interferon
Listing of recorded log10 of minimal effective concentration by entry.
Hello, just confirming the data are log10 of minimal effective concentration with units of µM.

Consider the reported log10 of minimal effective concentration for these compounds:
COMPOUND | log10 of minimal effective concentration
CCCCc1nc2c(N)nc(C)c(C)c2n1CCCCNS(=O)(=O)N(C)C [Example 6] | -2.00
CCOCc1nc2c(N)nc(C)c(C)c2n1CCC1CCN(C(=O)Nc2cccc(SC)c2)CC1 [Example 64] | -0.43
Cc1nc(N)c2ncn(CCCCNC(=O)Nc3ccc(N(C)C)cc3)c2c1C [Example 24] | 1.00
CCOCc1nc2c(N)nc(C)c(C)c2n1CCC1CCN(C(=O)NS(=O)(=O)c2ccc(Cl)cc2)CC1 [Example 70] | 1.00

Lab book: log10 of minimal effective concentration of Cc1nc(N)c2ncn(CCCCNC(=O)Nc3ccccc3)c2c1C [Example 19] noted as 1.00

Lab book: log10 of minimal effective concentration of CCOCc1nc2c(N)nc(C)cc2n1CCCCNC(=S)Nc1ccc(OC)cc1 [Example 52] noted as -0.43

Lab book: log10 of minimal effective concentration of CCCCNC(=O)N1CCC(CCn2c(COCC)nc3c(N)nc(C)c(C)c32)CC1 [Example 56] noted as 0.05

Lab book: log10 of minimal effective concentration of CCOCc1nc2c(N)nc(C)c(C)c2n1CCCCNS(C)(=O)=O [Example 8] noted as -1.40

Lab book: log10 of minimal effective concentration of CCOCc1nc2c(N)nc(C)c(C)c2n1CCC1CCN(C(=O)Nc2ccc(N(C)C)cc2)CC1 [Example 63] noted as -1.85

Lab book: log10 of minimal effective concentration of CCOCc1nc2c(N)nc(C)cc2n1CCCCNC(=S)NC [Example 49] noted as 0.52

* * *

Test system: interferon (α)
Experiment: Cytokine Induction in Human Cells: interferon (α) by ELISA
Format: cell-based
Details: human PBMC, 18 to 24 hours incubation, compounds generally tested at 30-0.014 μM; read-out: Lowest Effective Concentration Interferon
1 means recorded minimal effective concentration is 3 µM or above; -1 means it is below 3 µM.

Solved entries (count: 6):
COMPOUND | ASSIGNED CLASS
CCOCc1nc2c(N)nc(C)c(C)c2n1CCC1CCN(C(=O)N[C@@H]2C[C@H]2c2ccccc2)CC1 (relative stereo) [Example 67] | -1
CCOCc1nc2c(N)nc(C)cc2n1CCCCNC(=O)Nc1ccc(N(C)C)cc1 [Example 43] | -1
CCOCc1nc2c(N)nc(C)cc2n1CCCCNC(=O)Nc1cccc(SC)c1 [Example 44] | 1
CCOCc1nc2c(N)nc(C)c(C)c2n1CCC1CCN(C(=S)Nc2ccc(OC)cc2)CC1 [Example 73] | -1
CCCCNC(=O)NCCCCn1c(COCC)nc2c(N)nc(C)cc21 [Example 38] | 1
COc1ccc(NC(=O)NCCCCn2cnc3c(N)nc(C)c(C)c32)c(OC)c1 [Example 26] | 1

Answer whether minimal effective concentration of CCOCc1nc2c(N)nc(C)cc2n1CCCCNC(=O)Nc1ccc(OC)cc1OC [Example 45] is greater than or equal to 3 µM.
1

Answer whether minimal effective concentration of CCOCc1nc2c(N)nc(C)cc2n1CCCCNC(=O)Nc1cccc(C#N)c1 [Example 41] is greater than or equal to 3 µM.
1

Answer whether minimal effective concentration of Cc1nc(N)c2ncn(CCCCNC(=O)NC3CCCCC3)c2c1C [Example 20] is greater than or equal to 3 µM.
1

* * *

Tested on: interferon (α)
Test: Cytokine Induction in Human Cells: interferon (α) by ELISA
Type: cell-based
Conditions: human PBMC, 18 to 24 hours incubation, compounds generally tested at 30-0.014 μM; read-out: Lowest Effective Concentration Interferon
Listing of recorded minimal effective concentration by entry.
Give a bare numeral; the unit µM is implied.

Consider the reported minimal effective concentration for these compounds:
CPD SMILES | STUDY TARGET | UNIT LABEL | minimal effective concentration
CCOCc1nc2c(N)nc(C)c(C)c2n1CCC1CCN(C(=S)NCCc2ccccc2)CC1 | interferon (α) | µM | 0.37
CCOCc1nc2c(N)nc(C)cc2n1CCCCNC(=O)NCC(=O)OCC | interferon (α) | µM | 3.33
CCOCc1nc2c(N)nc(C)cc2n1CCCCNC(=S)Nc1ccccc1 | interferon (α) | µM | 0.37
CCOCc1nc2c(N)nc(C)c(C)c2n1CCC1CCN(C(=S)NC(=O)c2ccco2)CC1 | interferon (α) | µM | 0.37
CCOCc1nc2c(N)nc(C)cc2n1CCCCNC(=O)NC(C)C | interferon (α) | µM | 1.11
CCOCc1nc2c(N)nc(C)c(C)c2n1CCC1CCN(C(=O)NC(C)(C)C)CC1 | interferon (α) | µM | 3.33

Lab book: minimal effective concentration of CCOCc1nc2c(N)nc(C)c(C)c2n1CCC1CCN(C(=O)NCC(=O)OCC)CC1 noted as 1.11

* * *

Where a name gives a salt, the structure may show the parent alone.
MEASUREMENT LABEL: melting point

Consider the reported melting point for these molecules:
MOLECULE | ASSAY VALUE
Cc1nc(N)c2nc(C)n(CCCCNS(C)(=O)=O)c2c1C | 228 to 230 °C
Cc1nc(N)c2ncn(CCCCNC(=O)N3CCOCC3)c2c1C | 163.7 to 167 °C
Cc1nc(N)c2nc(C)n(CCCNC(=O)N3CCOCC3)c2c1C | 128.9 to 129.7 °C
CCCCc1nc2c(N)nc(C)c(C)c2n1CCCCNS(=O)(=O)N(C)C | 129.5 to 131 °C

Lab book: melting point of CCOCc1nc2c(N)nc(C)cc2n1CCCCNC(=O)N1CCOCC1 (as salt: salt) noted as 156.5 to 159.5 °C

Lab book: melting point of CCOCc1nc2c(N)nc(C)c(C)c2n1CCCNC(=O)N1CCOCC1 noted as 140.5 to 142.2 °C

Lab book: melting point of CCCCc1nc2c(N)nc(C)c(C)c2n1CCCCNS(C)(=O)=O noted as 130 to 130.5 °C

Lab book: melting point of CCCCc1nc2c(N)nc(C)c(C)c2n1CCCCNC(=S)Nc1ccccc1 (hydrate or solvate) noted as 160 to 160.8 °C

Lab book: melting point of Cc1nc(N)c2nc(C)n(CCNC(=O)N3CCOCC3)c2c1C noted as 219 to 221 °C

* * *

Listing of recorded minimal effective concentration by entry.
Test system: tumor necrosis factor (α)
Assay: Cytokine Induction in Human Cells: tumor necrosis factor (α) by ELISA or IGEN Assay
Type: cell-based
Settings: human PBMC, 18 to 24 hours incubation, compounds generally tested at 30-0.014 μM; read-out: Lowest Effective Concentration Tumor Necrosis Factor
Give a bare numeral; the unit µM is implied.

Consider the reported minimal effective concentration for these compounds:
CPD SMILES | UNIT LABEL | minimal effective concentration
CCOCc1nc2c(N)nc(C)cc2n1CCCCNC(=O)Nc1ccccc1 | µM | 10
CCOCc1nc2c(N)nc(C)c(C)c2n1CCC1CCN(C(=O)Nc2ccc(N(C)C)cc2)CC1 | µM | 1.11
CCOCc1nc2c(N)nc(C)c(C)c2n1CCC1CCN(C(=O)NCC(=O)OCC)CC1 | µM | 10

Lab book: minimal effective concentration of CCOCc1nc2c(N)nc(C)c(C)c2n1CCC1CCN(C(=O)Nc2ccccc2)CC1 noted as 1.11

Lab book: minimal effective concentration of CCOCc1nc2c(N)nc(C)cc2n1CCCCNC(=O)Nc1cccc(C(C)=O)c1 noted as 10

Lab book: minimal effective concentration of CCOCc1nc2c(N)nc(C)cc2n1CCCCNC(=S)Nc1ccc(OC)cc1 noted as 3.33

Lab book: minimal effective concentration of CCOCc1nc2c(N)nc(C)c(C)c2n1CCC1CCN(C(=O)N(C)c2ccccc2)CC1 noted as 1.11

Lab book: minimal effective concentration of Cc1nc(N)c2ncn(CCCCNC(=O)Nc3ccccc3)c2c1C noted as 30

* * *

System: interferon (α)
Test: Cytokine Induction in Human Cells: interferon (α) by ELISA
Format: cell-based
Settings: human PBMC, 18 to 24 hours incubation, compounds generally tested at 30-0.014 μM; read-out: Lowest Effective Concentration Interferon
MEASUREMENT LABEL: log10(minimal effective concentration) (log10 of the value in µM)
Hello, just confirming the data are log10 of minimal effective concentration with units of µM.

Lab book: log10(minimal effective concentration) of CCCCc1nc2c(N)nc(C)c(C)c2n1CCCCNC(=O)c1ccccc1 [Example 1] noted as -0.92

Lab book: log10(minimal effective concentration) of CCOCc1nc2c(N)nc(C)cc2n1CCCCNC(=O)Nc1cccc(C(C)=O)c1 [Example 42] noted as 1.00

Lab book: log10(minimal effective concentration) of CCOCc1nc2c(N)nc(C)cc2n1CCCCNC(=O)Nc1ccccc1 [Example 39] noted as 0.52

Lab book: log10(minimal effective concentration) of CCOCc1nc2c(N)nc(C)c(C)c2n1CCC1CCN(C(=O)Nc2cccc(C#N)c2)CC1 [Example 60] noted as -0.43

Lab book: log10(minimal effective concentration) of CCOCc1nc2c(N)nc(C)c(C)c2n1CCC1CCN(C(=O)NS(=O)(=O)c2ccccc2)CC1 [Example 69] noted as 0.52

Lab book: log10(minimal effective concentration) of CCCCc1nc2c(N)nc(C)c(C)c2n1CCCCNC(=O)Nc1ccccc1 [Example 4] noted as -0.92

Lab book: log10(minimal effective concentration) of CCOCc1nc2c(N)nc(C)c(C)c2n1CCC1CCN(C(=O)Nc2cccc(C(C)=O)c2)CC1 [Example 62] noted as -0.43

Lab book: log10(minimal effective concentration) of CCCCc1nc2c(N)nc(C)c(C)c2n1CCCCNC(=S)Nc1ccccc1 [Example 5, Hydrate] noted as -2.00

Lab book: log10(minimal effective concentration) of CCOCc1nc2c(N)nc(C)cc2n1CCCCNC(=S)NC(=O)c1ccco1 [Example 53] noted as -0.43

Lab book: log10(minimal effective concentration) of CCOCc1nc2c(N)nc(C)c(C)c2n1CCC1CCN(C(=O)Nc2ccc(OC)cc2OC)CC1 [Example 65] noted as -0.43
